From: patent EP2438921A1

# target.under.test: GABAA receptors composed of α1, β2 and γ2S subunits (Homo sapiens, UniProt P14867+P18507+P47870)
# Construct: expressed in transfected cells; host or cells: Xenopus laevis oocytes (stage V-VI), injected with cRNA transcribed from cDNA templates in pCMV vector; α1:β2:γ2S cRNA ratio 1:1:10
# Sequence (P14867 28-456): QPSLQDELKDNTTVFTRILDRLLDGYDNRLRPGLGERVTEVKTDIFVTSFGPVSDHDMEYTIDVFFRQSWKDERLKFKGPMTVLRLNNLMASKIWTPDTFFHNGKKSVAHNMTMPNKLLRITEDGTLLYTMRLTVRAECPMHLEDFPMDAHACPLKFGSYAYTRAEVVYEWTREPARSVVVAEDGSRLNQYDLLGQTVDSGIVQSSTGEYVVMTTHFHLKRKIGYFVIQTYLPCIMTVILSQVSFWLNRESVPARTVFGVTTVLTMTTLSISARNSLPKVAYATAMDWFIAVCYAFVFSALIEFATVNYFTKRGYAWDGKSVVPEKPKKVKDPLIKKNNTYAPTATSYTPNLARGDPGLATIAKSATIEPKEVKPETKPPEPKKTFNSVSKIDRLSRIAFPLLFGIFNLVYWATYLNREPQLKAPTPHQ
# Sequence (P47870 26-512): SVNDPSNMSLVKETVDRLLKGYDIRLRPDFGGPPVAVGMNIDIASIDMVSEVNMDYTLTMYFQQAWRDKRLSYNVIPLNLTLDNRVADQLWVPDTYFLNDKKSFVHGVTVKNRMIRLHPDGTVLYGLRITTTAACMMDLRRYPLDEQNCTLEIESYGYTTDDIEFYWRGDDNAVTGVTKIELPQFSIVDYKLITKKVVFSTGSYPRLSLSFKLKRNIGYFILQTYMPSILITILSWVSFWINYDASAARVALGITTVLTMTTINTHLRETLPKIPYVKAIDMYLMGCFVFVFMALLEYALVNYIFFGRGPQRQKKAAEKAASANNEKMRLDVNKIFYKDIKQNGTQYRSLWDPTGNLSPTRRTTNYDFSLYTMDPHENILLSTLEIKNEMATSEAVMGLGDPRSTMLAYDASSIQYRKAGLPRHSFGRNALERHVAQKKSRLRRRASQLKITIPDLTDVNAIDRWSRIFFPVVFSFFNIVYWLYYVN
# Sequence (P18507 40-467 isoform P18507-1 limits assumed): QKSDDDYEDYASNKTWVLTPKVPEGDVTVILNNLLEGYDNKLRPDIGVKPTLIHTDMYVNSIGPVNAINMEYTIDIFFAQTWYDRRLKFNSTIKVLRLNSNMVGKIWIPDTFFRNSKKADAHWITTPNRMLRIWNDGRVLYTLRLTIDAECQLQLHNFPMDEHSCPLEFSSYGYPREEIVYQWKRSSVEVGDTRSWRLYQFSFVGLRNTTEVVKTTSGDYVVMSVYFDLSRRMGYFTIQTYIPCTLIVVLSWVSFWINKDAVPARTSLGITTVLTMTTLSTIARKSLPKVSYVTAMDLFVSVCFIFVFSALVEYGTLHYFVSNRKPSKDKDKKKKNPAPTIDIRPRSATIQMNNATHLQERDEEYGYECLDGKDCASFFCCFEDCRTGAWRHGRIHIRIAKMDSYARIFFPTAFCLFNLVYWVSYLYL
# assay.summary: Modulation of GABA-induced chloride currents (IGABA), two-microelectrode voltage-clamp in Xenopus laevis oocytes expressing GABAA receptors
# Format: cell-based
# study.conditions: 100 µM of compound, GABA EC3-10 concentration
For each record, write down the corresponding Stimulation of IGABA (%).
One number for each entry, in %.

Some solved entries appear below for comparison.
molecule	test.value
CC(=O)O[C@@H]1C[C@@]23C[C@@]24CC[C@H](O[C@@H]2OC[C@@H](O)[C@H](O)[C@H]2O)C(C)(C)[C@@H]4CC=C3[C@]2(C)C[C@@H]3O[C@@]4(O)[C@H](OC(C)(C)[C@H]4O)[C@@H](C)[C@@H]3[C@@]12C [Compound 5, cimiracemoside F]	5
CC(=O)OC1CC23CC24CCC(OC2OCC(O)C(O)C2O)C(C)(C)C4CCC3C2(C)CC3OC4(CC(C)C3C12C)OCC1(C)OC14 (centres unmarked)	10
CC(=O)O[C@@H]1C[C@@]23C[C@@]24CC[C@H](O[C@@H]2OC[C@@H](O)[C@H](O)[C@H]2O)C(C)(C)[C@@H]4CC[C@H]3[C@]2(C)C[C@@H]3O[C@@]4(C[C@@H](C)[C@@H]3[C@@]12C)OC[C@@]1(C)O[C@@H]41 [Compound 3, 23-epi-26-deoxyactein]	10
C=C(C)[C@H]1O[C@@]23O[C@@H]1C[C@@H](C)[C@@H]2[C@@]1(C)CC[C@@]24C[C@@]25CC[C@H](O[C@@H]2OC[C@@H](O)[C@H](O)[C@H]2O)C(C)(C)[C@@H]5CC[C@H]4[C@]1(C)[C@H]3O	-76

We now examine a further molecule.
Task: Tell me the measured Stimulation of IGABA (%) of CC(=O)O[C@H](C[C@@H](C)[C@H]1C(=O)[C@H](O)[C@@]2(C)[C@@H]3CC[C@H]4C(C)(C)[C@@H](O)CC[C@@]45C[C@@]35CC[C@]12C)[C@@H]1OC1(C)C , please.
Output: 64
